Where do these numbers come from? They come from a melting point compilation (Tetko et al.; mined from patent text by program, amines drawn as free bases though some values may be those of a salt).

Reported melting point is given for each of the following molecules.
measurement.type: melting point

>>> print(df.to_string())
                                   molecule       result
0                     N#CCSC(=S)SCCc1ccccc1  72 to 73 °C
1  CCCCC(CC)COc1ccc(-c2nc(-c3ccc(OCC(CC)CCCC)cc3O)nc(-c3cccn3Cc3ccccc3)n2)c(O)c1 (stereo not drawn)  66 to 68 °C
2  CCOC(=O)CC(NC(=O)C(C)C)C(=O)c1ccco1 (stereo not drawn)  65 to 67 °C

---

measurement.type: melting point

>>> print(df.to_string())
                              smiles_record         result
0  O=C(Nc1c([N+](=O)[O-])cnn1-c1c(Cl)cc(S(=O)(=O)C(F)(F)F)cc1Cl)C(Cl)Cl  138 to 142 °C
1                           Oc1nccc2cccnc12  236 to 239 °C
2  COCn1nc(N)c2cc(S(=O)(=O)C(C)C)cc(OCCc3ccccn3)c21  140 to 142 °C
